Tested on: NCI-H226 lung
Test: NCI tumour cell line growth inhibition, 48 h
Item-by-item account of TGI
measuredProperty: TGI

>>> testresult("COc1cc(C2C3=C(COC3=O)N(CCO)c3cc4c(cc32)CCC4)cc(OC)c1O (centres undefined)")
"> 32.5 µM"
>>> testresult("COc1cc2c3c(c1OC)-c1ccccc1C(C(OC(C)=O)c1ccccc1)C3N(C)CC2 (centres undefined)")
"> 100 µM"
>>> testresult("COc1cc2oc3ccccc3c(=O)c2cc1CSc1ccccc1N")
"> 100 µM"
>>> testresult("CN(C)c1ccc(-c2nc(-c3cc4c(ccc5ccccc54)oc3=O)cs2)cc1")
"> 100 µM"
